Attribution: paper PMC8448162

protocol.text: clinical
Design: species or system human
condition.label: human, in vivo, 100 mg, Vz
Positions of bridges follow the written chain, without caps; N, C: chain ends. Non-standard residues stand in square brackets, D forms with d. Residues, ends and D or L forms follow the SMILES beside them. *: point of attachment. X1 = NC[C@@H](CC(=O)*)c1cccc(Cl)c1; Dab = NCC[C@H](N)C(=O)O; Dap = NC[C@H](N)C(=O)O
measurement.label: Vd (L)
Give the quantity in L, number only.

Looking up CC(C)C[C@@H]1NC(=O)[C@@H](Cc2ccccc2)NC(=O)[C@H](CCN)NC(=O)[C@@H](NC(=O)[C@H](CN)NC(=O)[C@@H](NC(=O)C[C@H](CN)c2cccc(Cl)c2)[C@@H](C)O)CCNC(=O)[C@H]([C@@H](C)O)NC(=O)[C@H](CCN)NC(=O)[C@H](CCN)NC1=O [SPR206] (X1-T[Dap][Dab][Dab][dF]L[Dab][Dab]T; lactam 3-C (inferred)) , I found its Vd recorded as 20.8

* * *

protocol.text: clinical
Set-up: species or system human
condition.label: human, in vivo, 100 mg, AUC0–inf
Positions of bridges follow the written chain, without caps; N, C: chain ends. Non-standard residues stand in square brackets, D forms with d. Residues, ends and D or L forms follow the SMILES beside them. *: point of attachment. X1 = NC[C@@H](CC(=O)*)c1cccc(Cl)c1; Dab = NCC[C@H](N)C(=O)O; Dap = NC[C@H](N)C(=O)O
measurement.label: AUC(0-inf) (ng·h/mL)
Enter your answer as a number in ng·h/mL; do not include the unit.

Short answer for CC(C)C[C@@H]1NC(=O)[C@@H](Cc2ccccc2)NC(=O)[C@H](CCN)NC(=O)[C@@H](NC(=O)[C@H](CN)NC(=O)[C@@H](NC(=O)C[C@H](CN)c2cccc(Cl)c2)[C@@H](C)O)CCNC(=O)[C@H]([C@@H](C)O)NC(=O)[C@H](CCN)NC(=O)[C@H](CCN)NC1=O [SPR206] (X1-T[Dap][Dab][Dab][dF]L[Dab][Dab]T; lactam 3-C (inferred)) : AUC(0-inf) was 27700

* * *

protocol.text: clinical
Parameters: species or system human
condition.label: human, in vivo, iv, 300 mg, AUC0–inf
Positions of bridges follow the written chain, without caps; N, C: chain ends. Non-standard residues stand in square brackets, D forms with d. Residues, ends and D or L forms follow the SMILES beside them. *: point of attachment. X1 = NC[C@@H](CC(=O)*)c1cccc(Cl)c1; Dab = NCC[C@H](N)C(=O)O; Dap = NC[C@H](N)C(=O)O
measurement.label: AUC(0-inf) (ng·h/mL)
Return type: number; implicit unit ng·h/mL.

// recorded AUC(0-inf) for CC(C)C[C@@H]1NC(=O)[C@@H](Cc2ccccc2)NC(=O)[C@H](CCN)NC(=O)[C@@H](NC(=O)[C@H](CN)NC(=O)[C@@H](NC(=O)C[C@H](CN)c2cccc(Cl)c2)[C@@H](C)O)CCNC(=O)[C@H]([C@@H](C)O)NC(=O)[C@H](CCN)NC(=O)[C@H](CCN)NC1=O [SPR206] (X1-T[Dap][Dab][Dab][dF]L[Dab][Dab]T; lactam 3-C (inferred)) : 71000

* * *

protocol.text: clinical
Design: species or system human
condition.label: human, in vivo, iv, 10 mg, AUC0–inf
Positions of bridges follow the written chain, without caps; N, C: chain ends. Non-standard residues stand in square brackets, D forms with d. Residues, ends and D or L forms follow the SMILES beside them. *: point of attachment. X1 = NC[C@@H](CC(=O)*)c1cccc(Cl)c1; Dab = NCC[C@H](N)C(=O)O; Dap = NC[C@H](N)C(=O)O
measurement.label: AUC(0-inf) (ng·h/mL)
Report as a plain number; the unit ng·h/mL is understood.

Summary for this compound, CC(C)C[C@@H]1NC(=O)[C@@H](Cc2ccccc2)NC(=O)[C@H](CCN)NC(=O)[C@@H](NC(=O)[C@H](CN)NC(=O)[C@@H](NC(=O)C[C@H](CN)c2cccc(Cl)c2)[C@@H](C)O)CCNC(=O)[C@H]([C@@H](C)O)NC(=O)[C@H](CCN)NC(=O)[C@H](CCN)NC1=O [SPR206] (X1-T[Dap][Dab][Dab][dF]L[Dab][Dab]T; lactam 3-C (inferred)) : AUC(0-inf) is 1810

* * *

protocol.text: clinical
Set-up: species or system human
condition.label: human, in vivo, 150 mg, AUC0–8
Description: This was a single-center, phase 1, randomized, double-blind, placebo-controlled, first-in-human study to assess the safety, tolerability, and PK of SPR206 following SAD and MAD administrations (Fig. 7). […] Plasma and urine concentrations and PK parameters for SPR206 were summarized for each treatment using descriptive statistics. In the SAD/MAD study, geometric means were calculated for AUC and Cmax. […]
Positions of bridges follow the written chain, without caps; N, C: chain ends. Non-standard residues stand in square brackets, D forms with d. Residues, ends and D or L forms follow the SMILES beside them. *: point of attachment. X1 = NC[C@@H](CC(=O)*)c1cccc(Cl)c1; Dab = NCC[C@H](N)C(=O)O; Dap = NC[C@H](N)C(=O)O
measurement.label: AUC(0-t) (ng·h/mL)
Write it as a number; the unit ng·h/mL goes unstated.

Value of AUC(0-t) reported for the molecule CC(C)C[C@@H]1NC(=O)[C@@H](Cc2ccccc2)NC(=O)[C@H](CCN)NC(=O)[C@@H](NC(=O)[C@H](CN)NC(=O)[C@@H](NC(=O)C[C@H](CN)c2cccc(Cl)c2)[C@@H](C)O)CCNC(=O)[C@H]([C@@H](C)O)NC(=O)[C@H](CCN)NC(=O)[C@H](CCN)NC1=O [SPR206] (X1-T[Dap][Dab][Dab][dF]L[Dab][Dab]T; lactam 3-C (inferred)) is 41500

* * *

protocol.text: clinical
Parameters: species or system human
condition.label: human, in vivo, iv, 50 mg, AUC0–inf
Positions of bridges follow the written chain, without caps; N, C: chain ends. Non-standard residues stand in square brackets, D forms with d. Residues, ends and D or L forms follow the SMILES beside them. *: point of attachment. X1 = NC[C@@H](CC(=O)*)c1cccc(Cl)c1; Dab = NCC[C@H](N)C(=O)O; Dap = NC[C@H](N)C(=O)O
measurement.label: AUC(0-inf) (ng·h/mL)
Supply the numeric figure in ng·h/mL, leaving out any unit text.

get_value(item= CC(C)C[C@@H]1NC(=O)[C@@H](Cc2ccccc2)NC(=O)[C@H](CCN)NC(=O)[C@@H](NC(=O)[C@H](CN)NC(=O)[C@@H](NC(=O)C[C@H](CN)c2cccc(Cl)c2)[C@@H](C)O)CCNC(=O)[C@H]([C@@H](C)O)NC(=O)[C@H](CCN)NC(=O)[C@H](CCN)NC1=O [SPR206] (X1-T[Dap][Dab][Dab][dF]L[Dab][Dab]T; lactam 3-C (inferred)) , readout=AUC(0-inf)) returns 10700

* * *

protocol.text: clinical
Design: species or system human
condition.label: human, in vivo, iv, 10 mg, CL
Positions of bridges follow the written chain, without caps; N, C: chain ends. Non-standard residues stand in square brackets, D forms with d. Residues, ends and D or L forms follow the SMILES beside them. *: point of attachment. X1 = NC[C@@H](CC(=O)*)c1cccc(Cl)c1; Dab = NCC[C@H](N)C(=O)O; Dap = NC[C@H](N)C(=O)O
measurement.label: clearance (mL/min)
The answer is to be given in mL/min; state only the numeric part.

Per the record, CC(C)C[C@@H]1NC(=O)[C@@H](Cc2ccccc2)NC(=O)[C@H](CCN)NC(=O)[C@@H](NC(=O)[C@H](CN)NC(=O)[C@@H](NC(=O)C[C@H](CN)c2cccc(Cl)c2)[C@@H](C)O)CCNC(=O)[C@H]([C@@H](C)O)NC(=O)[C@H](CCN)NC(=O)[C@H](CCN)NC1=O [SPR206] (X1-T[Dap][Dab][Dab][dF]L[Dab][Dab]T; lactam 3-C (inferred)) has clearance of 93.3

* * *

protocol.text: clinical
Parameters: species or system human
condition.label: human, in vivo, iv, 400 mg, Cmax
Positions of bridges follow the written chain, without caps; N, C: chain ends. Non-standard residues stand in square brackets, D forms with d. Residues, ends and D or L forms follow the SMILES beside them. *: point of attachment. X1 = NC[C@@H](CC(=O)*)c1cccc(Cl)c1; Dab = NCC[C@H](N)C(=O)O; Dap = NC[C@H](N)C(=O)O
measurement.label: Cmax (ng/mL)
Report the figure in ng/mL without appending any unit label.

CC(C)C[C@@H]1NC(=O)[C@@H](Cc2ccccc2)NC(=O)[C@H](CCN)NC(=O)[C@@H](NC(=O)[C@H](CN)NC(=O)[C@@H](NC(=O)C[C@H](CN)c2cccc(Cl)c2)[C@@H](C)O)CCNC(=O)[C@H]([C@@H](C)O)NC(=O)[C@H](CCN)NC(=O)[C@H](CCN)NC1=O [SPR206] (X1-T[Dap][Dab][Dab][dF]L[Dab][Dab]T; lactam 3-C (inferred)) yielded Cmax of 25400
